# target_system: oxytocin receptors (Rattus norvegicus, UniProt P70536)
# Construct: The uteri are dissected out, cleaned of fat and connective tissues; from tissue; host or cells: uterus of DES-treated female Sprague-Dawley rats
# Sequence (P70536 1-388): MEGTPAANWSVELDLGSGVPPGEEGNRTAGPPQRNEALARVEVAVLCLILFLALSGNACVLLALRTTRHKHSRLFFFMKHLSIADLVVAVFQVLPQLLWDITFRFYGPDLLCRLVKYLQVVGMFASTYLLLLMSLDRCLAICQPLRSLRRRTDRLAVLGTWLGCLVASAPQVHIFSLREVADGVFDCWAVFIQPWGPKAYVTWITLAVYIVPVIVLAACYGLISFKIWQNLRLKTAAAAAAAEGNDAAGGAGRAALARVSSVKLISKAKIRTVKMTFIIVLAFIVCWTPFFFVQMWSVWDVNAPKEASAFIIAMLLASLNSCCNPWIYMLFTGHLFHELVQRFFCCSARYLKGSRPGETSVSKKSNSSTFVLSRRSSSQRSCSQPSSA
# protocol_notes: Oxytocin Receptor Binding
# condition_context: dose 10 μM, [3H]oxytocin
endpoint: inhibition at 10 µM (%)

Sample answers from the record:
CN(C)CCSC(C(=O)Nc1ccc(C(=O)N2Cc3cccn3Cc3ccccc32)cc1)c1ccccc1 (centres unmarked) | 26
O=C(Nc1ccc(C(=O)N2Cc3cccn3Cc3ccccc32)cc1)C(O)c1ccccc1 (racemic) | 90

I: CCOC(=O)c1ccc2n1Cc1ccccc1N(C(=O)c1ccc(NC(=O)c3ccc(Cl)cc3Cl)c(C)c1)C2
II: Cc1c(F)cccc1C(=O)Nc1ccc(C(=O)N2Cc3ccnn3Cc3ccccc32)cc1
Query block: Could you determine which record has the numerically smaller inhibition at 10 µM? Candidates: I and II # reply format: chosen label
Result block: I
(I: 41%, II: 91%)

P: O=C(Nc1ccc(C(=O)N2Cc3cccn3Cc3sccc32)cc1)c1ccc(Cl)cc1Cl
Q: Cc1cc(C(=O)N2Cc3cccn3Cc3ccccc32)cc(C)c1NC(=O)c1ccc(Cl)cc1Cl
Query block: Form field 'greater inhibition at 10 µM' accepts P or Q ; which applies? Answer by quoting the chosen item's label.
Result block: P
